protein stability index overview
B1: FEM1A (parent)
chain: PCCSSSPEEPLNGESYESCCPTSR

# Variants of: B1
# PROTOCOL_SUMMARY: protein stability index of a GFP-peptide fusion (GPS, HEK-293T) (PSI 1-6); higher = more stable;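 further: lentivirally expressed fusions sorted by FACS into six bins by GFP to DsRed ratio, PSI derived from sequencing read proportions per bin multiplied by bin number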
# DETAILS: c terminus: a fixed tail appended

MUTATION_STRING	protein stability index
E17P	3.7
L11H	4.2
N12F	3.01
C20S	4.14
S23K	4.18
E17A	3.04
C19D	4.5
Y16R	3.35
Y16I	3.73
P7I	3.03
P21Y	3.01
G13A	4.14
E9K	3.41
P7M	3.11
S15F	2.63
P1E	4.44
Y16K	3.68
P21Q	4.17
E17M	3.44
P1F	3.17
P10R	3.82
T22C	4.41
C20I	3.54
P7F	3.51
E14S	3.14
E14A	3.77
S18T	4.19
P10K	3.5
